Kindly state Classification for each of the entries shown.
target_under_test: GST-KIAA807 [GST: P08515]
Sequence (P08515 whole entry): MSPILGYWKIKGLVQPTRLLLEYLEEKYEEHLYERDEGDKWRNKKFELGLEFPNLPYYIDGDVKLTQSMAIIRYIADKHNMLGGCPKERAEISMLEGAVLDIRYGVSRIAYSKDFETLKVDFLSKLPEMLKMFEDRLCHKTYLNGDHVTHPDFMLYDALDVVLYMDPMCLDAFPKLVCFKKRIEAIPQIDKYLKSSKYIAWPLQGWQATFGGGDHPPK
assay_summary: G' assay; also: key of the grades not given here
Answer in A450 class, number only, no unit symbol.

# input I would be grateful if you could share the reported Classification for QQYQQRQSVIFHKRAPEQAL (modifications not checked) [muscarinic Ach receptor M4] .
# output 1

# input I would be grateful if you could share the reported Classification for GTSDMKDLVGNIEQNEHSVI (modifications not checked) [Mannose Receptor] .
# output 1

# input I would be grateful if you could share the reported Classification for AWDDSARAAGGQGLHVTAL (modifications not checked) [LPAP] .
# output 5

# input I would be grateful if you could share the reported Classification for QPTPTLGLNLGNDPDRGTSI (modifications not checked) [GluR delta-2] .
# output 3

# input I would be grateful if you could share the reported Classification for KKGTYLTDETHREVKFTSL (modifications not checked) [CD46] .
# output 4

# input I would be grateful if you could share the reported Classification for VHDAESSDEDGYDWGPATDL (modifications not checked) [zona occludens 3 (ZO-3) PL peptide] .
# output 5

# input I would be grateful if you could share the reported Classification for RDSFHRSSFRKAETQLSQGS (modifications not checked) [Clasp-5] .
# output 1

# input I would be grateful if you could share the reported Classification for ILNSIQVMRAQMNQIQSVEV (modifications not checked) [ephrin B2] .
# output 2

# input I would be grateful if you could share the reported Classification for VISKATPALPTVSISSSAEV (modifications not checked) [Clasp-1] .
# output 1

# input I would be grateful if you could share the reported Classification for PSWRRSSLSESENATSLTTF (modifications not checked) [BLR-1] .
# output 2

# input I would be grateful if you could share the reported Classification for VDSERRPHFPQFSYSASSTA (modifications not checked) [AKT1] .
# output 1

# input I would be grateful if you could share the reported Classification for LASKSAEEGKQIPDSLSTDL (modifications not checked) [DOCK2] .
# output 5

# input I would be grateful if you could share the reported Classification for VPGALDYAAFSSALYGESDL (modifications not checked) [a-actinin 2] .
# output 5

# input I would be grateful if you could share the reported Classification for RNIEEVYVGGKQVVPFSSSV (modifications not checked) [Nedasin (s-form)] .
# output 2

# input I would be grateful if you could share the reported Classification for DSDPENEPFDEDQHTQITKV (modifications not checked) [PTEN] .
# output 5

# input I would be grateful if you could share the reported Classification for EALQPEPGRKRIPLTRTTTF (modifications not checked) [somatostatin receptor 4] .
# output 1

# input I would be grateful if you could share the reported Classification for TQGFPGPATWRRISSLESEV (modifications not checked) [NMDA Glutamate Receptor 2C (cysteine-free)] .
# output 4

# input I would be grateful if you could share the reported Classification for PGQPPKVKSEFNSYSLTGYV (modifications not checked) [claudin 2] .
# output 1

# input I would be grateful if you could share the reported Classification for KPQIAALKEETEEEVQDTRL (modifications not checked) [CFTCR (cystic fibrosis transmembrane conductance regulator)] .
# output 1

# input I would be grateful if you could share the reported Classification for KTMPAATYRLLTGQEQPVYL (modifications not checked) [MINT-3] .
# output 1

# input I would be grateful if you could share the reported Classification for PPATPSPRLALPAHHNATRL (modifications not checked) [Na+/Pi cotransporter 2] .
# output 5

# input I would be grateful if you could share the reported Classification for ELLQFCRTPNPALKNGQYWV (modifications not checked) [CSPG4 (chondroitin sulfae proteoglycan 4, melanoma-associated)] .
# output 1

# input I would be grateful if you could share the reported Classification for LNETTETQRTLLNGDLQTSI (modifications not checked) [SSTR2 (somatostatin recepor 2)] .
# output 2

Source of measurements: patent US20050282743A1
